# reported Kd; entries follow
Molecular target: T1, short isoform of VEGF (8-109) (UniProt P15692 214-315)
T1 construct: range 8-109; Immobilized by amine coupling for SPR; in solution for the fluorescence assay; also called vascular endothelial growth factor
T1 sequence (looked up): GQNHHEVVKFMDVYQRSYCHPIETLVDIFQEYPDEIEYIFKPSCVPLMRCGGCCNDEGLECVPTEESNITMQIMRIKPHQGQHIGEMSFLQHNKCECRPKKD
Assay: calculated from k-1 and k1, 0 M NaCl data
Answer format: numeric, nM implied, no suffix.

Fab Y0101 variant, heavy chain Y99K (Fab, name in Kabat numbering, V domains shown, Fab of Y0101 with one heavy chain substitution) VH: EVQLVESGGGLVQPGGSLRLSCAASGYTFTNYGMNWVRQAPGKGLEWVGWINTYTGEPTYAADFKRRFTFSLDTSKSTAYLQMNSLRAEDTAVYYCAKYPHYKGSSHWYFDVWGQGTLVTVSS VL: DIQLTQSPSSLSASVGDRVTITCSASQDISNYLNWYQQKPGKAPKVLIYFTSSLHSGVPSRFSGSGSGTDFTLTISSLQPEDFATYYCQQYSTVPWTFGQGTKVEIKR; 0.4
Fab Y0101 variant, heavy chain Y99R (Fab, name in Kabat numbering, V domains shown, Fab of Y0101 with one heavy chain substitution) VH: EVQLVESGGGLVQPGGSLRLSCAASGYTFTNYGMNWVRQAPGKGLEWVGWINTYTGEPTYAADFKRRFTFSLDTSKSTAYLQMNSLRAEDTAVYYCAKYPHYRGSSHWYFDVWGQGTLVTVSS VL: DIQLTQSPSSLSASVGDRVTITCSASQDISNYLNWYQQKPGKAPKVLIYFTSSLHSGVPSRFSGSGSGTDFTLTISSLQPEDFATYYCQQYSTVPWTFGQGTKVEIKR; 0.2

Query: Fill in reported Kd for this entry: Fab Y0101 variant, heavy chain S100aR (Fab, name in Kabat numbering, V domains shown, Fab of Y0101 with one heavy chain substitution) VH: EVQLVESGGGLVQPGGSLRLSCAASGYTFTNYGMNWVRQAPGKGLEWVGWINTYTGEPTYAADFKRRFTFSLDTSKSTAYLQMNSLRAEDTAVYYCAKYPHYYGRSHWYFDVWGQGTLVTVSS VL: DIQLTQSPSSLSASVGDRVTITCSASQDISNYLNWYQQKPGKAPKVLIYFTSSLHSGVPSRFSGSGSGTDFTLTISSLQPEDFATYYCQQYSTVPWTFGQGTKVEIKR
Result: 0.3

Query: Fill in reported Kd for this entry: Fab Y0101 variant, heavy chain E56K (Fab, name in Kabat numbering, V domains shown, Fab of Y0101 with one heavy chain substitution) VH: EVQLVESGGGLVQPGGSLRLSCAASGYTFTNYGMNWVRQAPGKGLEWVGWINTYTGKPTYAADFKRRFTFSLDTSKSTAYLQMNSLRAEDTAVYYCAKYPHYYGSSHWYFDVWGQGTLVTVSS VL: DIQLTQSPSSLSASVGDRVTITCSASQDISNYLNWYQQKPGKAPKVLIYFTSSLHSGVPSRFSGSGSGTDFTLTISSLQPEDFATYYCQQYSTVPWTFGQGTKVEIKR
Result: 0.9
